Value source: patent US20090233999A1

# maps each entry to its cytotoxicity at 30 μM
Experiment: THP-1 cell viability
Type: cell-based
Details: human, THP-1 cells, read-out: reduction of viability of the THP-1 cells

>>> result("Oc1ccc2c(c1)OCC(c1ccc(Br)cc1)=C2 [Cpd. 21, 4′-Bromo-7-hydroxyisoflav-3-ene]")
"~10%"

Exercise: Which value of cytotoxicity at 30 μM has been reported for COc1cccc(C2=Cc3ccc(O)cc3OC2)c1 [Cpd. 16, 7-Hydroxy-3′-methoxyisoflav-3-ene] in the records?
Key: ~10%

###

# maps each entry to its Change in ear thickness (mean ± SD, ×0.01 mm)
Test system: BALB/c mice (PMA-induced ear swelling)
Test: Murine ear inflammation assay, PMA-induced ear swelling
Assay type: in vivo, mouse
Conditions: PMA; 25 mg/kg i/p; 5 hr post-PMA
I only need the number, in ×0.01 mm, no unit after it.

>>> quantitativereadout("Oc1ccc2c(c1)OCC(c1ccc(Br)cc1)=C2 [Cpd. 21, 4′-Bromo-7-hydroxyisoflav-3-ene]")
27.2
>>> quantitativereadout("Oc1ccc(C2=Cc3ccc(O)c(Br)c3OC2)cc1 [Cpd. 20, 4′,7-Dihydroxy-8-bromoisoflav-3-ene]")
22.7
>>> quantitativereadout("COc1ccc(C2=Cc3ccc(O)cc3OC2)cc1OC [Cpd. 18, 7-Hydroxy-3′,4′-dimethoxyisoflav-3-ene]")
29.6
>>> quantitativereadout("COc1ccc(C2=Cc3ccc(O)c(C)c3OC2)cc1OC")
22.1

Exercise: What Change in ear thickness (mean ± SD, ×0.01 mm) appears in the records for this compound with BALB/c mice (PMA-induced ear swelling)? Cc1c(O)ccc2c1OCC(c1cccc(O)c1)=C2 [Cpd. 14, 3′,7-Dihydroxy-8-methylisoflav-3-ene]
Key: 27.9

Exercise: What Change in ear thickness (mean ± SD, ×0.01 mm) appears in the records for this compound with BALB/c mice (PMA-induced ear swelling)? COc1cccc(C2=Cc3ccc(O)cc3OC2)c1 [Cpd. 16, 7-Hydroxy-3′-methoxyisoflav-3-ene]
Key: 23.3
